Recorded activity coefficient values for a group of molecules are listed next.
- method: activity coefficient (dimensionless); of the first substance listed, at infinite dilution; xn = mol fraction of the nth substance listed
- measurement_parameters: 338.15 K; 101 kPa; Liquid; Chromatography; x1 = 0
Response field accepts a number only; no unit should be typed.

Use the examples below as a reference point.
molecule	activity coefficient
C=CCCCCCC [oct-1-ene] + CCCCCCOCn1cc[n+](COCCCCCC)c1.O=S(=O)([N-]S(=O)(=O)C(F)(F)F)C(F)(F)F	2.99
CO [methanol] + CCCCCCOCn1cc[n+](C)c1.O=S(=O)([N-]S(=O)(=O)C(F)(F)F)C(F)(F)F	0.959
C=CCCCCC [1-heptene] + CCCCCCOCn1cc[n+](COCCCCCC)c1.O=S(=O)([N-]S(=O)(=O)C(F)(F)F)C(F)(F)F	2.49
C1CCCCC1 [cyclohexane] + CCCCCCOCn1cc[n+](COCCCCCC)c1.O=S(=O)([N-]S(=O)(=O)C(F)(F)F)C(F)(F)F	2.01
C#CCCCCCC [1-octyne] + CCCCCCOCn1cc[n+](C)c1.O=S(=O)([N-]S(=O)(=O)C(F)(F)F)C(F)(F)F	3.12

## Input Give the reported activity coefficient for this molecule. C1CCCCCC1 [cycloheptane] + CCCCCCOCn1cc[n+](C)c1.O=S(=O)([N-]S(=O)(=O)C(F)(F)F)C(F)(F)F
## Output 5.23

## Input Give the reported activity coefficient for this molecule. CCCCC [pentane] + CCCCCCOCn1cc[n+](COCCCCCC)c1.O=S(=O)([N-]S(=O)(=O)C(F)(F)F)C(F)(F)F
## Output 2.48

## Input Give the reported activity coefficient for this molecule. Cc1ccc(C)cc1 [1,4-dimethylbenzene] + CCCCCCOCn1cc[n+](COCCCCCC)c1.O=S(=O)([N-]S(=O)(=O)C(F)(F)F)C(F)(F)F
## Output 0.955

## Input Give the reported activity coefficient for this molecule. CCCCCCC [heptane] + CCCCCCOCn1cc[n+](C)c1.O=S(=O)([N-]S(=O)(=O)C(F)(F)F)C(F)(F)F
## Output 8.65

## Input Give the reported activity coefficient for this molecule. C#CCCCCCC [1-octyne] + CCCCCCOCn1cc[n+](COCCCCCC)c1.O=S(=O)([N-]S(=O)(=O)C(F)(F)F)C(F)(F)F
## Output 1.67

---

- method: activity coefficient (dimensionless); of the first substance listed, at infinite dilution; xn = mol fraction of the nth substance listed
- measurement_parameters: 338.15 K; 101 kPa; Liquid; Chromatography; x1 = 0
Recorded activity coefficient values for a group of molecules are listed next.
Response field accepts a number only; no unit should be typed.

## Input Give the reported activity coefficient for this molecule. C=CCCCCC [1-heptene] + CCCCCCOCn1cc[n+](C)c1.O=S(=O)([N-]S(=O)(=O)C(F)(F)F)C(F)(F)F
## Output 5.44

## Input Give the reported activity coefficient for this molecule. C=CCCC [1-pentene] + CCCCCCOCn1cc[n+](C)c1.O=S(=O)([N-]S(=O)(=O)C(F)(F)F)C(F)(F)F
## Output 3.61

## Input Give the reported activity coefficient for this molecule. c1ccsc1 [thiophene] + CCCCCCOCn1cc[n+](C)c1.O=S(=O)([N-]S(=O)(=O)C(F)(F)F)C(F)(F)F
## Output 0.746

---

- method: activity coefficient (dimensionless); of the first substance listed, at infinite dilution; xn = mol fraction of the nth substance listed
- measurement_parameters: 348.15 K; 101 kPa; Liquid; Chromatography; x1 = 0
Rule: Y for activity coefficient not less than 1, N for anything less.

Check out these entries, answers already filled in.
compound	assigned_class
C1CCCC1 [cyclopentane] + CCCCCCOCn1cc[n+](COCCCCCC)c1.O=S(=O)([N-]S(=O)(=O)C(F)(F)F)C(F)(F)F	Y
CCCCC [pentane] + CCCCCCOCn1cc[n+](COCCCCCC)c1.O=S(=O)([N-]S(=O)(=O)C(F)(F)F)C(F)(F)F	Y
C=CCCCC [hex-1-ene] + CCCCCCOCn1cc[n+](COCCCCCC)c1.O=S(=O)([N-]S(=O)(=O)C(F)(F)F)C(F)(F)F	Y

## Input Reported activity coefficient at or above 1? CCc1ccccc1 [ethylbenzene] + CCCCCCOCn1cc[n+](COCCCCCC)c1.O=S(=O)([N-]S(=O)(=O)C(F)(F)F)C(F)(F)F
## Output N

## Input Reported activity coefficient at or above 1? CC(C)=O [acetone] + CCCCCCOCn1cc[n+](C)c1.O=S(=O)([N-]S(=O)(=O)C(F)(F)F)C(F)(F)F
## Output N

---

- method: activity coefficient (dimensionless); of the first substance listed, at infinite dilution; xn = mol fraction of the nth substance listed
- measurement_parameters: 358.15 K; 101 kPa; Liquid; Chromatography; x1 = 0
Recorded activity coefficient values for a group of compounds are listed next.

Use the examples below as a reference point.
compound	activity coefficient
CCCOCCC [dipropyl ether] + CCCCCCOCn1cc[n+](C)c1.O=S(=O)([N-]S(=O)(=O)C(F)(F)F)C(F)(F)F	2.79
C#CCCCC [1-hexyne] + CCCCCCOCn1cc[n+](C)c1.O=S(=O)([N-]S(=O)(=O)C(F)(F)F)C(F)(F)F	1.98
O [water] + CCCCCCOCn1cc[n+](COCCCCCC)c1.O=S(=O)([N-]S(=O)(=O)C(F)(F)F)C(F)(F)F	2.02
Cc1ccccc1C [1,2-dimethylbenzene] + CCCCCCOCn1cc[n+](C)c1.O=S(=O)([N-]S(=O)(=O)C(F)(F)F)C(F)(F)F	1.36
C1CCOC1 [tetrahydrofuran] + CCCCCCOCn1cc[n+](C)c1.O=S(=O)([N-]S(=O)(=O)C(F)(F)F)C(F)(F)F	0.504
CC(C)=O [acetone] + CCCCCCOCn1cc[n+](COCCCCCC)c1.O=S(=O)([N-]S(=O)(=O)C(F)(F)F)C(F)(F)F	0.29

## Input Give the reported activity coefficient for this compound. Cc1ccc(C)cc1 [1,4-dimethylbenzene] + CCCCCCOCn1cc[n+](C)c1.O=S(=O)([N-]S(=O)(=O)C(F)(F)F)C(F)(F)F
## Output 1.5

## Input Give the reported activity coefficient for this compound. C#CCCCCCC [1-octyne] + CCCCCCOCn1cc[n+](C)c1.O=S(=O)([N-]S(=O)(=O)C(F)(F)F)C(F)(F)F
## Output 3.11

---

- method: activity coefficient (dimensionless); of the first substance listed, at infinite dilution; xn = mol fraction of the nth substance listed
- measurement_parameters: 328.15 K; 101 kPa; Liquid; Chromatography; x1 = 0
recorded_metric: activity coefficient
Response field accepts a number only; no unit should be typed.

Use the examples below as a reference point.
compound	activity coefficient
CO [methanol] + CCCCCCOCn1cc[n+](C)c1.O=S(=O)([N-]S(=O)(=O)C(F)(F)F)C(F)(F)F	1.04
CCOCC [diethyl ether] + CCCCCCOCn1cc[n+](C)c1.O=S(=O)([N-]S(=O)(=O)C(F)(F)F)C(F)(F)F	1.4
C=CCCCCC [1-heptene] + CCCCCCOCn1cc[n+](COCCCCCC)c1.O=S(=O)([N-]S(=O)(=O)C(F)(F)F)C(F)(F)F	2.54

## Input Give the reported activity coefficient for this compound. C1CCCCCC1 [cycloheptane] + CCCCCCOCn1cc[n+](COCCCCCC)c1.O=S(=O)([N-]S(=O)(=O)C(F)(F)F)C(F)(F)F
## Output 2.41

## Input Give the reported activity coefficient for this compound. COC(C)(C)C [2-methoxy-2-methylpropane] + CCCCCCOCn1cc[n+](C)c1.O=S(=O)([N-]S(=O)(=O)C(F)(F)F)C(F)(F)F
## Output 1.36

## Input Give the reported activity coefficient for this compound. CCCCCCC [heptane] + CCCCCCOCn1cc[n+](C)c1.O=S(=O)([N-]S(=O)(=O)C(F)(F)F)C(F)(F)F
## Output 9.07

---

- method: activity coefficient (dimensionless); of the first substance listed, at infinite dilution; xn = mol fraction of the nth substance listed
- measurement_parameters: 358.15 K; 101 kPa; Liquid; Chromatography; x1 = 0
Recorded activity coefficient values for a group of molecules are listed next.

Use the examples below as a reference point.
molecule	recorded_metric	result
CCCCCCC [heptane] + CCCCCCOCn1cc[n+](C)c1.O=S(=O)([N-]S(=O)(=O)C(F)(F)F)C(F)(F)F	activity coefficient	7.95
CCCCCCCCC [nonane] + CCCCCCOCn1cc[n+](COCCCCCC)c1.O=S(=O)([N-]S(=O)(=O)C(F)(F)F)C(F)(F)F	activity coefficient	4.68
C1CCCCCCC1 [cyclooctane] + CCCCCCOCn1cc[n+](COCCCCCC)c1.O=S(=O)([N-]S(=O)(=O)C(F)(F)F)C(F)(F)F	activity coefficient	2.54
C=CCCCCC [1-heptene] + CCCCCCOCn1cc[n+](C)c1.O=S(=O)([N-]S(=O)(=O)C(F)(F)F)C(F)(F)F	activity coefficient	5.18

Next up:
## Input Give the reported activity coefficient for this molecule. CO [methanol] + CCCCCCOCn1cc[n+](COCCCCCC)c1.O=S(=O)([N-]S(=O)(=O)C(F)(F)F)C(F)(F)F
## Output 0.725
